The following compounds are listed with their measured T/C values.
# Tested on: CD2F1 mice, L1210 leukemia ip, survival T/C
# testDetails: NCI In Vivo Anticancer Drug Screen. Data for tumor model L1210 Leukemia (intraperitoneal) in CD2F1 (CDF1) mice
# conditionSet: endpoint: mean survival time; dose: 12.5 mg/kg/injection; schedule: Q01DX009 (ip); vehicle: water; higher = longer survival
Inconclusive results and toxic doses are left out.

COc1cc2c(cc1OC)C(NC=O)CCC2 (stereo not drawn)
102 % of control
COc1ccc(OC)c2c1CC(C(C)=O)CC2=O (stereo not drawn)
98 % of control
COc1ccc(OC)c(C=C(C(C)=O)C(C)=O)c1
95 % of control

[ask] Please look up its T/C: C1CNCCNCCNCCN1
[reply] 100 % of control

[ask] Please look up its T/C: COc1ccc(OC)c(CC(C(C)=O)C(C)=O)c1
[reply] 100 % of control

[ask] Please look up its T/C: COC(=O)C(CS)NC(=O)CCNC(C)=O (stereo not drawn)
[reply] 97 % of control

[ask] Please look up its T/C: O=C(O)c1nnc(C(=O)O)nn1
[reply] 100 % of control

[ask] Please look up its T/C: COc1ccc(CCNCCc2ccc(OC)c(OC)c2)cc1OC
[reply] 95 % of control

---

# System: CD2F1 mice, L1210 leukemia ip, survival T/C
# testDetails: NCI In Vivo Anticancer Drug Screen. Data for tumor model L1210 Leukemia (intraperitoneal) in CD2F1 (CDF1) mice
# conditionSet: endpoint: mean survival time; dose: 25.0 mg/kg/injection; schedule: Q01DX005 (ip); vehicle: water; higher = longer survival
Toxic doses and inconclusive results are not listed.
The following compounds are listed with their measured T/C values.

Record excerpt, results attached:
Cn1c(=O)c2c(nc(N3CCOCC3)n2CCCNCC(O)c2ccc(O)c(O)c2)n(C)c1=O (configuration not stated)
96 % of control
COc1cccc(CN2CCCNCC2)c1
96 % of control
N#Cc1cn(C2OC(CO)C(O)C2O)c2ncn(N)c(=N)c12 (configuration not stated)
110 % of control
[N-]=[N+]=NCc1cn(C2CC(O)C(CO)O2)c(=O)[nH]c1=O (configuration not stated)
103 % of control
COC(=O)c1ncn(C2OC(COC(C)=O)C(OC(C)=O)C2OC(C)=O)c1C(=O)OC (configuration not stated)
94 % of control

[ask] Please look up its T/C: NCCc1nc[nH]c1[N+](=O)[O-]
[reply] 97 % of control

[ask] Please look up its T/C: N#Cc1cn(C2OC(CO)C(O)C2O)c2nc(NN)nc(N)c12 (configuration not stated)
[reply] 110 % of control

---

# Test system: CD2F1 mice, L1210 leukemia ip, survival T/C
# testDetails: NCI In Vivo Anticancer Drug Screen. Data for tumor model L1210 Leukemia (intraperitoneal) in CD2F1 (CDF1) mice
# conditionSet: endpoint: mean survival time; dose: 400.0 mg/kg/injection; schedule: Q04DX003 (ip); vehicle: saline; higher = longer survival
Inconclusive results and toxic doses are left out.
The following compounds are listed with their measured T/C values.

COc1cc(C)ccc1C1=CCCCCC1
103 % of control
CN1C(=S)[N+](C)(C)N=C1[O-]
101 % of control
CC(C)(C)C(C)(O)CN (centres undefined)
92 % of control
C=C1C(=O)OC2(C)C(C)=C(C)C12C (centres undefined)
108 % of control
COC(=O)C/C(=C/C=C1/C(=O)ON=C1C)c1c(C)[nH]oc1=O
108 % of control
CCCCC(N)C(=O)O (centres undefined)
95 % of control
Cc1ccc(S(=O)(=O)CC(=O)N2CCOCC2)cc1
98 % of control
CC(S)CN (centres undefined)
104 % of control
Nc1cc(S(=O)(=O)O)cc2ccc(S(=O)(=O)O)cc12
117 % of control
C[n+]1cccc(C(=O)N/N=C/c2ccco2)c1
104 % of control

[ask] Please look up its T/C: N#Cc1ccc(CO)cc1Br
[reply] 92 % of control

[ask] Please look up its T/C: CC12OC3(C)C4C(=O)OC1C1(C)OC4(C)C3C(=O)OC21
[reply] 97 % of control

[ask] Please look up its T/C: C=CCCCCC/C=C/CCCCCC
[reply] 106 % of control

[ask] Please look up its T/C: Nc1ccccc1O
[reply] 119 % of control

---

# System: CD2F1 mice, L1210 leukemia ip, survival T/C
# testDetails: NCI In Vivo Anticancer Drug Screen. Data for tumor model L1210 Leukemia (intraperitoneal) in CD2F1 (CDF1) mice
# conditionSet: endpoint: mean survival time; dose: 25.0 mg/kg/injection; schedule: Q01DX009 (ip); vehicle: saline with Tween-80; higher = longer survival
# Protocol: The antitumor activity of compounds was measured in mice bearing transplantable tumors. Survival or tumor size were measured and the results are expressed as the measurement made in the treated group (T) divided by the measurement made in the vehicle treated control group (C). The tumor model used in this assay is L1210 Leukemia (intraperitoneal) in CD2F1 (CDF1) mice
Toxic doses and inconclusive results are not listed.
The following compounds are listed with their measured T/C values.

O=S1(=O)Cc2c(Br)c(Br)c(Br)c(Br)c2C1
88 % of control
COc1cc(OC)c(NC(=O)ON2C(=O)c3ccccc3C2=O)cc1Cl
103 % of control
COC1OC2COC(c3ccccc3)OC2C(O)C1N (stereo not given)
96 % of control
Nc1ccc2c(c1)C(=O)c1ccccc1C2=O
98 % of control
COc1cc(OC)c(NC(=O)OCCOc2cc(C)c(Cl)c(C)c2)cc1Cl
95 % of control

[ask] Please look up its T/C: Cc1cc(C(C)(C)C)c(OC(=S)N(C)C)c(C(C)(C)C)c1
[reply] 92 % of control

[ask] Please look up its T/C: O=Cc1ccc(O)c(O)c1
[reply] 106 % of control

[ask] Please look up its T/C: C[N+](C)(CCO)Cc1ccccc1
[reply] 102 % of control

[ask] Please look up its T/C: COc1cc(C(C)(C)C)cc(OC)c1C(O)(c1c(OC)cc(C(C)(C)C)cc1OC)c1c(OC)cc(C(C)(C)C)cc1OC
[reply] 104 % of control

[ask] Please look up its T/C: O=c1c2ccsc2ncn1C1OC(CO)C(O)C1O (stereo not given)
[reply] 111 % of control

---

# System: CD2F1 mice, L1210 leukemia ip, survival T/C
# testDetails: NCI In Vivo Anticancer Drug Screen. Data for tumor model L1210 Leukemia (intraperitoneal) in CD2F1 (CDF1) mice
# conditionSet: endpoint: mean survival time; dose: 20.0 mg/kg/injection; schedule: Q01DX009 (ip); vehicle: saline with Tween-80; higher = longer survival
Toxic doses and inconclusive results are not listed.
metricName: T/C

CC(=O)OCCC(C)Nc1ccnc2cc(Cl)ccc12 (stereo not given)
102 % of control

Moving on to another compound below.
[ask] Please look up its T/C: CCCCCCCCCC1=NC(C)(C)CN1c1ccccc1
[reply] 106 % of control

---

# System: CD2F1 mice, L1210 leukemia ip, survival T/C
# testDetails: NCI In Vivo Anticancer Drug Screen. Data for tumor model L1210 Leukemia (intraperitoneal) in CD2F1 (CDF1) mice
# conditionSet: endpoint: mean survival time; dose: 150.0 mg/kg/injection; schedule: Q01DX001 (ip); vehicle: saline; higher = longer survival
Toxic doses and inconclusive results are not listed.
metricName: T/C

Record excerpt, results attached:
CCOC(=O)c1c(NC(=O)CBr)sc(C)c1C
98 % of control
CCn1cnc2c(=S)nc[nH]c21
115 % of control
O=C1c2ccccc2C(=O)c2c(NC3CCCCC3)ccc(Nc3ccc(S(=O)(=O)O)cc3)c21
100 % of control
CN(C)C(c1ccccc1)C(O)c1ccccc1 (stereo not drawn)
97 % of control
OCC(O)C(O)C(O)C(/C=N/Nc1ccccc1)=N/Nc1ccccc1 (stereo not drawn)
95 % of control
OCC(O)C(O)C(O)C(/C=N/Nc1ccccc1)=N\Nc1ccccc1 (stereo not drawn)
100 % of control
CC12CCC3C(CC=C4CC(OC(=N)N)CCC43C)C1CCC2=O (stereo not drawn)
101 % of control

Moving on to another molecule below.
[ask] Please state recorded T/C (tested on CD2F1 mice, L1210 leukemia ip, survival T/C) of CN(C)C(=Nc1ccccc1)N(C)N
[reply] 100 % of control

---

The following compounds are listed with their measured T/C values.
# System: CD2F1 mice, L1210 leukemia ip, survival T/C
# testDetails: NCI In Vivo Anticancer Drug Screen. Data for tumor model L1210 Leukemia (intraperitoneal) in CD2F1 (CDF1) mice
# conditionSet: endpoint: mean survival time; dose: 200.0 mg/kg/injection; schedule: Q04DX002 (ip); vehicle: saline with Tween-80; higher = longer survival
Inconclusive results and toxic doses are left out.

Record excerpt, results attached:
CC1=C(N=[N+]=[N-])C(=O)c2ccccc2C1=O
100 % of control
CCN(CC)CCCC(C)NC(c1ccc2c(c1)Sc1ccccc1O2)[P+](=O)O (centres undefined)
97 % of control

Moving on to another compound below.
[ask] Please look up its T/C: O=C(O)C1Cc2c([nH]c3ccccc23)C2CC(C3CC4c5[nH]c6ccccc6c5CC(C(=O)O)N4C3=O)C(=O)N12 (centres undefined)
[reply] 93 % of control
